Procedure Summary: Metabolic stability in human liver microsomes assessed as intrinsic clearance
Format: ADME, Microsome
Conditions Used: read-out: CLH
Parameter: CLint scaled (mL/min/kg)
The reply should contain only the number, in mL/min/kg.

CC(C)O[C@H]1CC[C@H](C(=O)N2Cc3cccnc3Nc3cnc(C4COCCO4)cc32)CC1 (some centres undefined)    20
CC(C)O[C@H]1CC[C@H](C(=O)N2Cc3cccnc3Nc3cc(F)c(C4COCCO4)cc32)OC1 (some centres undefined)    58
CC(C)O[C@H]1CC[C@H](C(=O)N2Cc3cccnc3Nc3cnc(N4C[C@@H]5C[C@H]4CO5)cc32)CC1    64

Next compound, please.
Problem: Please give the measured CLint scaled for this compound: CC(C)O[C@H]1CC[C@H](C(=O)N2Cc3cccnc3Nc3cc(F)c(N4CC5CCC4CO5)cc32)CC1 (some centres undefined)
Result: 124
